# Test system: SW-620 colon
# assay-procedure: NCI-60 one-dose screen, 48 h (100 = growth as untreated, 0 = no growth, -100 = all killed)
# condition-description: 10 µM unless noted
Compounds without any hit were thinned out: in the full panel of roughly 83,000, 20% have a hit.
quantity-kind: growth (%)

| molecule | assayed-target | quantity-kind | result-unit | val |
| --- | --- | --- | --- | --- |
| COc1cc(C(=O)/C=C/c2cn(-c3ccccc3)nc2-c2cccc(Nc3ccnc4cc(Cl)ccc34)c2)cc(OC)c1OC | SW-620 colon | growth | % | 99.1 |
| Cc1ccccc1N1C(c2ccccc2)=NNC12C=CC(=O)c1c(O)cccc12 (stereo not given) | SW-620 colon | growth | % | 98.6 |
| Cc1n(Cc2ccc3ccccc3n2)cc[n+]1Cc1ccc2ccccc2c1 | SW-620 colon | growth | % | 20.6 |
| Cc1cc(C)c(C#N)c(SCC(=O)c2sc3c(C#N)c(C)cc(C)[n+]3c2[O-])n1 | SW-620 colon | growth | % | 20.3 |
| COc1cc(C)c2c(=O)c3c(oc2c1)C(=O)c1c(O)c(OC)cc(O)c1C3=O | SW-620 colon | growth | % | 16.9 |
| O=C(CCc1nc2sc3c(c2c(=O)[nH]1)CCC3)NCc1cn(-c2ccccc2)nc1-c1ccccc1 | SW-620 colon | growth | % | 28.7 |
| CC(=O)c1cccc(Nc2ncnc3ccc(NC(=O)c4ccco4)cc23)c1 | SW-620 colon | growth | % | 115 |
| COc1ccc(/C=C/C(=O)c2ccc(NC(=O)CSc3nnc(-c4ccc(OC)cc4)n3-c3ccccc3)cc2)cc1 | SW-620 colon | growth | % | 102 |
| CC1(C)CC[C@]2(C(=O)N3CCNCC3)CC[C@]3(C)C(=CC[C@@H]4[C@@]5(C)CCC(=O)C(C)(C)[C@@H]5CC[C@]43C)[C@@H]2C1 | SW-620 colon | growth | % | 106 |
| Nc1ccc(N(O)/C=C2\C=CC=CC2=O)cc1N | SW-620 colon | growth | % | 105 |

====

# System: NCI-H23 lung
# assay-procedure: NCI-60 one-dose screen, 48 h (100 = growth as untreated, 0 = no growth, -100 = all killed)
# condition-description: 10 µM unless noted
# Description: Growth inhibition of the NCI-H23 human Non-Small Cell Lung tumor cell line is measured as a screen for anti-cancer activity. Cells are grown in 96 well plates and exposed to the test compound for 48 hours. Compounds are tested at a single concentration, which is 10^-5 M for most compounds. The reported endpoint is percent growth (GI% or GIPRCNT), where numbers from 0 - 100% represent growth inhibition, and numbers from -100% - 0 represent cell death. […]
The panel holds about 83,000 compounds, 20% with a hit somewhere; the sample as a whole holds those more often.
Mark t only when growth stays strictly below 70%. Values equal to the cut-off are f.

| molecule | cat |
| --- | --- |
| CC(=O)[C@H]1CC[C@H]2[C@@H]3CC[C@H]4CC=CC[C@]4(C)[C@H]3CC[C@]12C | f |
| Cc1ccc(N=CNN=C(N)N)cc1 | f |
| COc1ccc2[nH]cc(/C=C3\C(=O)Nc4ccccc43)c2c1 | t |
| COc1cc(C2Nc3ccccc3S2)cc(CN2CCOCC2)c1O (configuration not stated) | f |
| Cc1cc(O)ccc1C1=NN(c2ccc(S(N)(=O)=O)cc2)C(=O)CC1 | t |
| C=CCn1c(SCC(=O)Nc2ccc(C(=O)/C=C/c3ccccc3)cc2)nnc1-c1ccc(OC)c(OC)c1 | f |
| COc1cc2nccc(Oc3ccc(NC(=O)C4(C(=O)Nc5c(F)cc(F)cc5F)CC4)cc3)c2cc1Oc1ccc(N)cn1 | t |
| COS(=O)(=O)CCN(CCOS(C)(=O)=O)S(C)(=O)=O | f |
| Cc1cc(-c2nnc(/C=C/c3ccc4c(c3)OCO4)o2)n[nH]1 | f |
| COc1cc(NCCCCC(C)N)c2nccc(C)c2c1 (configuration not stated) | f |
| COc1ccc(-c2nn(-c3cccc(Cl)c3)cc2/C=C2\C(=N)N(c3ccccc3)N=C2N)cc1 | t |
| COc1ccc(NC(=O)c2ccc(C(F)(F)F)nc2Nc2ccc(Cl)cc2C)cc1Cl | t |
| Cc1ccc(-c2cnc3sc4ccc(Cl)cc4n23)cc1 | f |
| COc1ccc(C(=O)C(C#N)c2cc(OC)c(OC)c(OC)c2)cc1 (configuration not stated) | f |
| COc1ccc(C2CC(c3ccc(Nc4ccnc5cc(Cl)ccc45)cc3)=NN2c2ccccc2)cc1 (configuration not stated) | f |
| CC(C)(C)CC(C)(C)NCc1cc(C(C)(C)C)cc(CNC(C)(C)CC(C)(C)C)c1O | t |
| C=CCN(CCOC(=O)c1ccc([N+](=O)[O-])cc1)CCOC(=O)c1ccc([N+](=O)[O-])cc1 | f |
| Nc1ccc(N(O)/C=C2\C=CC=CC2=O)cc1N | f |
| CC[C@H](Nc1nc(N)nc(N)c1Cl)c1nc2cccc(NCc3ccc(C(=O)NO)cc3)c2c(=O)n1-c1ccccc1 | t |
| COc1ccc2c(c1)CCCC21C(=O)Nc2ccccc21 (configuration not stated) | f |
| Cc1ccc2nc(CN(CCN(Cc3nc4ccc(C)cc4[nH]3)Cc3nc4ccc(C)cc4[nH]3)Cc3nc4ccc(C)cc4[nH]3)[nH]c2c1 | t |
| CNC(=O)c1ccccc1Sc1ccc2c(/C=C/c3ccccn3)n[nH]c2c1 | t |
| O=C1c2ccccc2C(=O)c2c1oc1ccc3ccccc3c21 | t |
| COc1ccc([C@@H]2[C@@H](Cl)C(=O)N2c2cc(OC)c(OC)c(OC)c2)cc1C | t |
| CC(C)(C)NC(=O)C(OC(=O)C1CCc2cc(F)ccc2O1)c1ccccc1Cl (configuration not stated) | f |
| Cc1c(C)c(C)c([N+](=O)[O-])c([N+](=O)[O-])c1C | f |
| Oc1[nH]c2ccc(Cl)cc2c1/C=c1/ccc2c(c1)N=C(c1ccc(F)cc1)N=2 | f |

====

# Tested on: MDA-MB-231 breast
# assay-procedure: NCI-60 one-dose screen, 48 h
# condition-description: 10 µM unless noted
The panel holds about 83,000 compounds, 20% with a hit somewhere; the sample as a whole holds those more often. The source made the active and inactive calls. How the source made its calls: active means growth percent below 10; inactive means the rest.
Labels: 1.0 = active, 0.0 = inactive

| compound | assayed-target | cat |
| --- | --- | --- |
| COc1ccc(-c2nc(-c3ccccc3OCc3ccccc3OC)nc(C)c2C(C)=O)cc1 | MDA-MB-231 breast | 0.0 |
| CC(C)CC(NC(=O)C(CCCN=C(N)N)NC(=O)OCc1ccccc1)C(=O)NC(CNC(=O)/C=C/c1ccccc1)C(C)C (centres undefined) | MDA-MB-231 breast | 0.0 |
| CCCc1n(Cc2ccc3ccccc3c2)c2ccccc2[n+]1Cc1ccc2ccccc2c1 | MDA-MB-231 breast | 1.0 |
| CC1(C)C2CCC(O)(C(=O)O)C1C2 (centres undefined) | MDA-MB-231 breast | 0.0 |
| Cc1ccccc1N1C(c2ccccc2)=NNC12C=CC(=O)c1c(O)cccc12 (centres undefined) | MDA-MB-231 breast | 0.0 |
| O=c1[nH]c2ccccc2n2cc3cccnc3c12 | MDA-MB-231 breast | 0.0 |
| CCCCn1c(C)nc2ccc(Nc3nc(Cl)nc4nc[nH]c34)cc21 | MDA-MB-231 breast | 0.0 |
| Nc1nc2ccc([C@@H]3Nc4ccc5[nH]ncc5c4[C@H]4[C@H]5CCC(C5)[C@H]43)cc2s1 | MDA-MB-231 breast | 0.0 |
| O=C1/C(=C\c2cccn2Cc2ccc(F)cc2)c2ccccc2N1c1c(Cl)cccc1Cl | MDA-MB-231 breast | 0.0 |
| NS(=O)(=O)c1ccc(N2N=C(c3cccs3)CC2c2ccccc2O)cc1 (centres undefined) | MDA-MB-231 breast | 1.0 |
| O=c1cc(-c2ccc3c(c2)OCCO3)oc2cc(Cl)ccc12 | MDA-MB-231 breast | 0.0 |
| COc1cc(/C=C/C(=O)c2ccc(NC(=O)CSc3nnc(-c4ccc(Cl)cc4)n3-c3ccccc3)cc2)cc(OC)c1OC | MDA-MB-231 breast | 0.0 |
| CCCCCCCCCCCCCCC(C(=O)OCC)C(=O)OCC | MDA-MB-231 breast | 0.0 |
| C1=C\CCCCN2CC[C@H]3[C@H](CCCC/C=C\CCCN4C[C@@H](CCCCC/1)C[C@@H]3C4)C2 | MDA-MB-231 breast | 0.0 |
| O=C(O)Cn1ccc2ccccc21 | MDA-MB-231 breast | 0.0 |
| COc1ccc(Nc2ncccc2C(=O)NCc2cn(Cc3cc(OC)cc(OC)c3)nn2)cc1 | MDA-MB-231 breast | 0.0 |
| [Ag].[Ag].[NH-]S(=O)(=O)c1ccc(N=Nc2cc(N=Nc3ccc(S([NH-])(=O)=O)cc3)c3c(NC(=O)C(Cl)Cl)cccc3c2OC(=O)C(Cl)Cl)cc1.[c-]1nccs1.[c-]1nccs1 | MDA-MB-231 breast | 0.0 |
| COS(=O)(=O)CCN(CCOS(C)(=O)=O)S(C)(=O)=O | MDA-MB-231 breast | 0.0 |
| C=C(C)C1CCC2(C(=O)O)CCC3(C)C(CCC4C5(C)CCC(O)C(C)(C)C5CCC43C)C12 (centres undefined) | MDA-MB-231 breast | 1.0 |

Hello, the source for this data is PubChem BioAssay (NCI), in case you need it.
